experiment: Cytotoxicity against BHK cells infected with West Nile virus replicon assessed as cell viability at 10 uM after 3 days by CellTiter 96 aqueous one solution cell proliferation assay relative to control; format: cell-based, Mesocricetus auratus; conditions: hamster, bhk, 72 h, 10 µM
Listing: Activity of selected molecules
Numbers only here, please. The scale is %.

Worked examples, 7 molecules total:
| molecule | Activity, % |
| --- | --- |
| Cc1cn([C@H]2C[C@H](n3nncc3COc3ccccc3)[C@@H](CO)O2)c(=O)[nH]c1=O | 96 |
| Cc1cn([C@H]2C[C@H](NC(=O)c3ccc4ccccc4n3)[C@@H](CO[Si](C)(C)C(C)(C)C)O2)c(=O)[nH]c1=O | 89 |
| COC[C@H]1O[C@@H](n2cc(C)c(=O)n(C)c2=O)C[C@@H]1n1nncc1-c1ccc2cc(OC)ccc2c1 | 100 |
| COc1ccc2cc(-c3cnnn3[C@H]3C[C@H](n4cc(C)c(=O)[nH]c4=O)O[C@@H]3COC3CCCCO3)ccc2c1 (stereo partly drawn) | 75 |
| COc1ccc2cc(-c3cnnn3[C@H]3C[C@H](n4cc(C)c(=O)[nH]c4=O)O[C@@H]3CO[Si](C)(C)C(C)(C)C)ccc2c1 | 100 |
| Cc1cn([C@H]2C[C@H](n3nncc3C3CCCCC3)[C@@H](CO)O2)c(=O)[nH]c1=O | 100 |
| Cc1cn([C@H]2C[C@H](NC(=O)c3c[nH]c4ccccc34)[C@@H](CO)O2)c(=O)[nH]c1=O | 97 |

Now look at this entry.
Input Cc1cn([C@H]2C[C@H](n3nncc3-c3ccc(-c4ccccc4)cc3)[C@@H](CO)O2)c(=O)[nH]c1=O . Output Activity: 100

Hey, just so you know, these numbers are from ChEMBL document CHEMBL3576816.
